Test system: Peroxisome proliferator-activated receptor alpha (Homo sapiens) (UniProt Q07869)
Sequence (Q07869 whole entry, looked up): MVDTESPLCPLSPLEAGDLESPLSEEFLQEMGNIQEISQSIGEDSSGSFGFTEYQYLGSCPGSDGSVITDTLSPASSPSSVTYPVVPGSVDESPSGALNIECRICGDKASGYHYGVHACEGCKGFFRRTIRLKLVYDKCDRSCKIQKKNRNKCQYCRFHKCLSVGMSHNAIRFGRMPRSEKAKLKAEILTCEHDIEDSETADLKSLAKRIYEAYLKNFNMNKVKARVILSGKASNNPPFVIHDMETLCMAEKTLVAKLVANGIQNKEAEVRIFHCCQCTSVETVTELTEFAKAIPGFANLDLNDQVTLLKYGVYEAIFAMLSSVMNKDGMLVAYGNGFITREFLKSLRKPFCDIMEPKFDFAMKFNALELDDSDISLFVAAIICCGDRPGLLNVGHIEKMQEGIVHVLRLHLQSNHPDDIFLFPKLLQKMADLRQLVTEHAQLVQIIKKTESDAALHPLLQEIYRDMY
Protocol summary: qHTS assay for small molecule agonists of the peroxisome proliferator-activated receptor alpha (PPARalpha) signaling pathway (AID 651778); note: % of control where 0% means no effect
Test context: PathHunter PPARalpha complementation, chemiluminescence, 6 h; stronger effect = higher value
Description: National Center for Advancing Translational Sciences [NCATS] NIH Chemical Genomics Center [NCGC] U.S. Environmental Protection Agency [EPA] National Institutes of Environmental Health Sciences [NIEHS] National Toxicology Program [NTP] The Peroxisome proliferator-activated receptors (PPARs) are lipid-activated transcription factors of the nuclear receptor superfamily with three distinct subtypes (alpha, garmma and beta/delta). […]
Entries and their measured max response follow.
Measured metric: max response (%)

compound=CN(C)CCOC(c1ccccc1)c1ccccc1 output_unit=% measured_number=-3.61
compound=Cn1cnc2c1c(=O)[nH]c(=O)n2C output_unit=% measured_number=-2.11
compound=C[C@](N)(Cc1ccc(O)c(O)c1)C(=O)O output_unit=% measured_number=-1.06
compound=Cc1ccc(-c2cc(C(F)(F)F)nn2-c2ccc(S(N)(=O)=O)cc2)cc1 output_unit=% measured_number=3.54
compound=CC#C[C@]1(O)CC[C@H]2[C@@H]3CCC4=CC(=O)CCC4=C3[C@@H](c3ccc(N(C)C)cc3)C[C@@]21C output_unit=% measured_number=-3.32
compound=NCCS(=O)(=O)O output_unit=% measured_number=5.59
compound=Cn1c(=O)c2[nH]cnc2n(C)c1=O output_unit=% measured_number=-1.61
compound=CCOC(=O)C(C)(C)Oc1ccc(Cl)cc1 output_unit=% measured_number=5.39
compound=O=C(c1ccc(OCCN2CCCCC2)cc1)c1c(-c2ccc(O)cc2)sc2cc(O)ccc12 output_unit=% measured_number=-6.34
compound="CC(C)Cc1ccc(C(C)C(=O)O)cc1 (stereo not given)" output_unit=% measured_number=-0.128
